Listing of IC50 toward human GST-DYRK1A (Homo sapiens), each taken from a published source.

Kindly indicate its recorded IC50. Item: O=C(c1ccc(Nc2nc(NC3CC3)c3c(C(F)(F)F)c[nH]c3n2)c2c1OCCO2)N1CCN(C2COC2)CC1
< 0.1 µM

Kindly indicate its recorded IC50. Item: COc1cc(O)c(C(=O)c2nc3cc(O)ccc3s2)cc1O
0.18 µM

Kindly indicate its recorded IC50. Item: O=C(Nc1ccccn1)Nc1cccc2c1C1CC3(CCN1C2=O)SCCS3 (centres unmarked)
> 10 µM

Kindly indicate its recorded IC50. Item: COCCNc1cc(Nc2ccc(P3(=O)CCN(C4CCOCC4)CC3)cc2OC)nc2[nH]cc(C(F)(F)F)c12
< 0.1 µM

Kindly indicate its recorded IC50. Item: C=CCNc1nc(Nc2ccc(S(=O)(=O)N3CCOCC3)cc2OC)nc2[nH]cc(C#N)c12
0.301 to 1 µM

Kindly indicate its recorded IC50. Item: CCCNc1cc(Nc2ccc(S(C)(=O)=O)cc2OC)nc2[nH]cc(Cl)c12
0.301 to 1 µM

Kindly indicate its recorded IC50. Item: COc1cc(S(=O)(=O)N2CCOCC2)ccc1Nc1nc(NCC(C)C)c2c(C(F)(F)F)c[nH]c2n1
0.101 to 0.3 µM

Kindly indicate its recorded IC50. Item: COc1cc(S(=O)(=O)N2CCOCC2)ccc1Nc1cc(NC2CCCCC2)c2cc[nH]c2n1
0.301 to 1 µM

----------
Listing of IC50 toward human GST-DYRK1A (Homo sapiens), each taken from a published source.

Kindly indicate its recorded IC50. Item: O=C(c1ccc(Nc2nc(NCC3CCC3)c3c(C(F)(F)F)c[nH]c3n2)c2c1OCCO2)N1CCOCC1
301 to 1000 nM

Kindly indicate its recorded IC50. Item: C=CCNc1nc(Nc2ccc(S(=O)(=O)N3CCOCC3)cc2OC)nc2[nH]cc(C(F)(F)F)c12
301 to 1000 nM

Kindly indicate its recorded IC50. Item: CCNc1cc(Nc2ccc(C(=O)N3CCOCC3)c3c2OCO3)nc2[nH]cc(C(F)(F)F)c12
< 100 nM

Kindly indicate its recorded IC50. Item: CCCNc1nc(Nc2ccc(C(=O)N3CCOCC3)c3c2OCC3)nc2[nH]cc(C#N)c12
301 to 1000 nM

Kindly indicate its recorded IC50. Item: OC1CCN(c2cncc(-c3cnc4[nH]ccc4c3)n2)CC1
< 500 nM

Kindly indicate its recorded IC50. Item: COc1cc(S(=O)(=O)N2CCOCC2)ccc1Nc1cc(NC2CC2)c2c(Cl)c[nH]c2n1
301 to 1000 nM

Kindly indicate its recorded IC50. Item: O=c1ccc2cnc(Nc3ccc(N4CCC(CCCO)CC4)c(F)c3)nc2n1[C@@H]1CC2CCC1C2 (some centres unmarked)
> 50000 nM

Kindly indicate its recorded IC50. Item: Fc1c[nH]c2ncc(-c3cncc(N4CCOCC4)n3)cc12
< 500 nM

----------
pIC50: −log10 of the molar value.
Listing of pIC50 toward human GST-DYRK1A (Homo sapiens, UniProt Q13627), each taken from a published source.

Kindly indicate its recorded pIC50. Item: O=C(c1ccc(Nc2nc(NCC3CCC3)c3c(C(F)(F)F)c[nH]c3n2)c2c1CCO2)N1CCC(N2CCOCC2)CC1
6.52 to 7.00

Kindly indicate its recorded pIC50. Item: CN1Cc2nn(C3CCNCC3)cc2-c2cnc3[nH]cc(c3c2)-c2cn(nc2C(F)(F)F)CCCC1=O
> 7.30

Kindly indicate its recorded pIC50. Item: CNc1nc(Nc2ccc(S(=O)(=O)N3CCC(N4CCOCC4)CC3)c3c2OCCO3)nc2[nH]cc(C(F)(F)F)c12
> 7.00

Kindly indicate its recorded pIC50. Item: COc1cc(S(=O)(=O)N2CCOCC2)ccc1Nc1nc(NC(C)C)c2c(C(F)(F)F)c[nH]c2n1
6.00 to 6.52

Kindly indicate its recorded pIC50. Item: Cc1cc(NC(=O)Nc2cccc3c2C2CCCCN2C3=O)no1 (stereo not drawn)
< 5.00

Kindly indicate its recorded pIC50. Item: COCCn1nc2c(c1C#N)-c1cnc3[nH]cc(c3c1)-c1cn(nc1C(F)(F)F)CCC(=O)N(C)C2
> 7.30

Kindly indicate its recorded pIC50. Item: Cc1n[nH]c2ncc(-c3cncc(N4CCN(CCO)CC4)n3)cc12
< 6.30

Kindly indicate its recorded pIC50. Item: CCNc1cc(Nc2ccc(S(=O)(=O)N3CCOCC3)cc2OC)nc2[nH]cc(C(F)(F)F)c12
6.00 to 6.52

Kindly indicate its recorded pIC50. Item: O=C(c1ccc(Nc2cc(NC3CC3)c3cc[nH]c3n2)c2c1OCCO2)N1CCOCC1
6.00 to 6.52

Kindly indicate its recorded pIC50. Item: COc1cc(S(=O)(=O)N2CCC(N3CCOCC3)CC2)ccc1Nc1cc(NC2CC2)c2c(C#N)c[nH]c2n1
6.00 to 6.52

Kindly indicate its recorded pIC50. Item: CCNc1nc(Nc2ccc(C(=O)N3CCOCC3)c3c2OCC3)nc2[nH]cc(C#N)c12
6.52 to 7.00

Kindly indicate its recorded pIC50. Item: CNc1nc(Nc2ccc(P3(=O)CCN(C4CC4)CC3)cc2OC)nc2[nH]cc(C(F)(F)F)c12
6.52 to 7.00

Kindly indicate its recorded pIC50. Item: COc1cc(P2(=O)CCN(C3COC3)CC2)ccc1Nc1nc(NC2CCCCC2)c2cc[nH]c2n1
6.00 to 6.52

Kindly indicate its recorded pIC50. Item: COCCNc1cc(Nc2ccc(C(=O)N3CCOCC3)c3c2OCC3)nc2[nH]cc(C(F)(F)F)c12
> 7.00

Kindly indicate its recorded pIC50. Item: CS(=O)(=O)CCNc1nc(Nc2ccc(C(=O)N3CCC(N4CCOCC4)CC3)c3c2OCC3)nc2[nH]cc(C#N)c12
6.00 to 6.52

Kindly indicate its recorded pIC50. Item: COc1cc(S(=O)(=O)N2CCOCC2)ccc1Nc1nc(NCC2CCC2)c2cc[nH]c2n1
6.00 to 6.52

Kindly indicate its recorded pIC50. Item: N#Cc1c[nH]c2nc(Nc3ccc(C(=O)N4CCC(N5CCOCC5)CC4)c4c3OCCO4)nc(NC3CCC3)c12
6.52 to 7.00

Kindly indicate its recorded pIC50. Item: CCCNc1nc(Nc2ccc(S(C)(=O)=O)cc2OC)nc2[nH]cc(C(F)(F)F)c12
6.00 to 6.52

Kindly indicate its recorded pIC50. Item: CCCNc1nc(Nc2ccc(S(=O)(=O)N3CCC(N4CCOCC4)CC3)cc2OC)nc2[nH]cc(C#N)c12
6.00 to 6.52

Kindly indicate its recorded pIC50. Item: COc1cc(P2(=O)CCN(C3COC3)CC2)ccc1Nc1nc(NC2CCCC2)c2c(C#N)c[nH]c2n1
6.52 to 7.00

Kindly indicate its recorded pIC50. Item: N#Cc1c[nH]c2nc(Nc3ccc(C(=O)N4CCN(C5COC5)CC4)c4c3OCCO4)nc(NC3CCCCC3)c12
6.00 to 6.52

Kindly indicate its recorded pIC50. Item: CNc1nc(Nc2ccc(S(=O)(=O)N3CCOCC3)cc2OC)nc2[nH]cc(C#N)c12
6.00 to 6.52

Kindly indicate its recorded pIC50. Item: CCNc1cc(Nc2ccc(C(=O)N3CCO[C@@H](C)C3)c3c2OCC3)nc2[nH]cc(C(F)(F)F)c12
> 7.00

Kindly indicate its recorded pIC50. Item: CCCNc1nc(Nc2ccc(P3(=O)CCN(C4COC4)CC3)cc2OC)nc2[nH]cc(C#N)c12
6.00 to 6.52

Kindly indicate its recorded pIC50. Item: CC[C@H](CO)Nc1nc(NCc2ccc(-c3ccccn3)cc2)n2ncc(C(C)C)c2n1
5.74

Kindly indicate its recorded pIC50. Item: CCNc1nc(Nc2ccc(S(C)(=O)=O)cc2OC)nc2[nH]cc(C(F)(F)F)c12
6.00 to 6.52

Kindly indicate its recorded pIC50. Item: CCc1cnn2c(NCc3ccc(-c4ccccn4)cc3)nc(N[C@@H](CC)CO)nc12
6.09

Kindly indicate its recorded pIC50. Item: N#Cc1c[nH]c2nc(Nc3ccc(C(=O)N4CCN(C5COC5)CC4)c4c3OCCO4)nc(NCC3CC3)c12
6.00 to 6.52

Kindly indicate its recorded pIC50. Item: O=C(c1ccc(Nc2nc(NCC3CCCC3)c3c(C(F)(F)F)c[nH]c3n2)c2c1CCO2)N1CCOCC1
6.00 to 6.52

Kindly indicate its recorded pIC50. Item: CN1CCC(NC(=O)c2ccc(Nc3nc(NC4CCCCC4)c4c(C#N)c[nH]c4n3)c3c2OCCO3)CC1
6.00 to 6.52

----------
Listing of IC50 toward UniProtKB Q13627, each taken from a published source.

Print UniProtKB Q13627 IC50 for Cn1ccc(NC(=O)Nc2cccc3c2C2CC4(CCN2C3=O)SCCS4)n1 (stereo not shown) .
> 10000 nM

Print UniProtKB Q13627 IC50 for CNc1cc(Nc2ccc(S(=O)(=O)N3CCC(N4C[C@@H]5C[C@H]4CO5)CC3)cc2OC)nc2[nH]cc(C(F)(F)F)c12 .
< 100 nM

Print UniProtKB Q13627 IC50 for COc1cc(S(C)(=O)=O)ccc1Nc1cc(NCCS(C)(=O)=O)c2c(C(F)(F)F)c[nH]c2n1 .
< 100 nM

Print UniProtKB Q13627 IC50 for CC[C@H](C)Nc1nc(Nc2ccc(S(=O)(=O)N3CCOCC3)cc2OC)nc2[nH]cc(C(F)(F)F)c12 .
301 to 1000 nM
